Molecular target: CBP KIX (Mus musculus)
Construct: mouse CBP (UniProt P45481) KIX (residues 586–672)
Test: Fluorescence polarization competition assay, CBP KIX:TAD WT titrated with KG-501
Settings: KD = 2 μM set for the BMAL1 TAD-CBP KIX interaction; read-out: Ki calculated from the Cheng-Prusoff equation
measureName: pKi
Please keep in mind that pKi is minus log10 of the molar concentration; only the number is needed.

Qu. Specify pKi for O=C(Nc1ccc(Cl)cc1)c1cc2ccccc2cc1OP(=O)(O)O [KG-501, naphthol-AS-E-phosphate] and stop.
Ans. 3.96

###

Biological target: CBP KIX (Mus musculus, UniProt P45481)
Construct: mouse CBP (UniProt P45481) KIX (residues 586–672); made in house; host or cells: Rosetta (DE3) E. coli
Sequence (P45481 586-672): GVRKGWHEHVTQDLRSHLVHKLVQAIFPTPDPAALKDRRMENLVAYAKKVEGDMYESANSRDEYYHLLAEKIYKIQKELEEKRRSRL
Experiment: 15N-1H HSQC NMR titration of 15N CBP KIX with BMAL1 TAD peptides
Assay type: binding
Conditions: 100 μM 15N CBP KIX, 10 mM MES pH 6.5, 50 mM NaCl, 25°C; Fig. 3b; read-out: KD for the CBP KIX domain estimated by fitting concentration-dependent CSPs
No end group written: not given here.
measureName: Kd

Qu. Specify Kd for FSDLPWPL-OH [switch] and stop.
Ans. > 500 µM

# credit: paper doi:10.1101/2025.09.04.674342
